The entries below are paired with their reported selectivity ratio.
Assay: Selectivity index, ratio of IC50 for human K562 cells to IC50 for chloroquine, pyrimethamine and proguanil-resistant Plasmodium falciparum W2
Format: toxicity, cell-based
Conditions: K562 cells (cytotoxicity) versus Plasmodium falciparum W2, read-out: Ratio IC50
quantity-kind: selectivity ratio

INSERT INTO results (smiles_entry, quantity_kind, result_comparator, measured_value) VALUES
  ('Cc1nc(Nc2cccc(Cl)c2)c2ccccc2n1', 'selectivity ratio', '=', 0.5),
  ('Clc1cc(Cl)cc(Nc2nc(C(Cl)(Cl)Cl)nc3ccccc23)c1', 'selectivity ratio', '=', 2.2),
  ('FC(F)(F)c1ccccc1Nc1nc(C(Cl)(Cl)Cl)nc2ccccc12', 'selectivity ratio', '=', 4.1),
  ('Clc1cccc(Nc2nc(C(Cl)(Cl)Cl)nc3ccccc23)c1', 'selectivity ratio', '>', 29.4),
  ('Cc1ccc(Nc2nc(C(Cl)(Cl)Cl)nc3ccccc23)cc1', 'selectivity ratio', '=', 2.5),
  ('Cc1cccc(Nc2nc(C(Cl)(Cl)Cl)nc3ccccc23)c1', 'selectivity ratio', '=', 3.9),
  ('Cc1nc(Nc2cccc(C(F)(F)F)c2)c2ccccc2n1', 'selectivity ratio', '=', 0.2);

----------
Test system: K562
Assay: Cytotoxicity against human K562 cells after 72 hrs by flow cytometry
Format: cell-based
Conditions: K562, 72 h
pIC50: −log10 of the molar value.
quantity-kind: pIC50

INSERT INTO assay_data (smiles_entry, assayed_target, quantity_kind, result_comparator, measured_value) VALUES
  ('ClC(Cl)(Cl)c1nc(N2CCOCC2)c2ccccc2n1', 'K562', 'pIC50', '<', 3.90),
  ('Clc1cccc(Nc2nc(C(Cl)(Cl)Cl)nc3ccccc23)c1Cl', 'K562', 'pIC50', '<', 4.22),
  ('COc1ccc(Nc2nc(C(Cl)(Cl)Cl)nc3ccccc23)cc1', 'K562', 'pIC50', '=', 5.10),
  ('Clc1ccccc1Nc1nc(C(Cl)(Cl)Cl)nc2ccccc12', 'K562', 'pIC50', '<', 4.30),
  ('Fc1cccc(Nc2nc(C(Cl)(Cl)Cl)nc3ccccc23)c1', 'K562', 'pIC50', '=', 4.82),
  ('O=[N+]([O-])c1cccc(Nc2nc(C(Cl)(Cl)Cl)nc3ccccc23)c1', 'K562', 'pIC50', '=', 5.30),
  ('Clc1ccc(Cl)c(Nc2nc(C(Cl)(Cl)Cl)nc3ccccc23)c1', 'K562', 'pIC50', '<', 5.10),
  ('CCCCNc1nc(C(Cl)(Cl)Cl)nc2ccccc12', 'K562', 'pIC50', '<', 4.30),
  ('O=[N+]([O-])c1ccccc1Nc1nc(C(Cl)(Cl)Cl)nc2ccccc12', 'K562', 'pIC50', '<', 4.22),
  ('FC(F)(F)Oc1ccc(Nc2nc(C(Cl)(Cl)Cl)nc3ccccc23)cc1', 'K562', 'pIC50', '=', 5.22),
  ('ClC(Cl)(Cl)c1nc(Nc2cccc(Br)c2)c2ccccc2n1', 'K562', 'pIC50', '<', 4.30),
  ('FC(F)(F)c1cc(Nc2nc(C(Cl)(Cl)Cl)nc3ccccc23)cc(C(F)(F)F)c1', 'K562', 'pIC50', '=', 5.00),
  ('Clc1cccc(Cl)c1Nc1nc(C(Cl)(Cl)Cl)nc2ccccc12', 'K562', 'pIC50', '=', 5.00),
  ('ClC(Cl)(Cl)c1nc(NCc2ccccc2)c2ccccc2n1', 'K562', 'pIC50', '<', 4.30),
  ('COc1cccc(Nc2nc(C(Cl)(Cl)Cl)nc3ccccc23)c1', 'K562', 'pIC50', '=', 5.05);
